Below: a set of entries, each annotated with reported YAP1 (% UTC).
# Test system: Yap1 mRNA
# assay.method.text: Antisense inhibition of human Yap1 in A-431 cells by cEt gapmers, single dose (Example 2, RTS4814)
# Type: cell-based
# condition.set: Yap1 mRNA as percent of untreated control; A-431 cells; 3-10-3 cEt gapmers targeting SEQ ID NO.: 1, and 2; Table 30
Strand notation (5' to 3'): a small letter for the sugar, then the base; units joined by * are phosphorothioate-linked, units joined directly phosphodiester-linked; [ ] holds rarer units or linkages, { } end groups; capitals alone tell only the bases. k = constrained ethyl (cEt); [5mC] = 5-methylcytosine; d = 2'-deoxy (DNA)
quantity: YAP1 (% UTC)

> print(dat)
                                  substance  measured.result
1  1076432 (k[5mC]*kA*kT*dT*dA*dG*dT*dA*dT*dT*d[5mC]*dA*d[5mC]*kT*kG*kT; antisense) [compound 1076432]               18
2  1074192 (antisense kG*kA*k[5mC]*dG*dG*d[5mC]*dG*dG*dG*d[5mC]*d[5mC]*d[5mC]*dT*kG*k[5mC]*k[5mC]) [compound 1074192]              108
3  1076272 (kT*kT*kA*dG*dA*dA*d[5mC]*dA*dA*d[5mC]*dT*dA*d[5mC]*kT*kA*k[5mC]; antisense) [compound 1076272]               53
4  1076048 (kG*kA*kT*dT*dA*dA*dA*dG*dG*d[5mC]*dT*dG*dG*kA*kA*kG; antisense) [compound 1076048]               32
5  1076464 (k[5mC]*kA*kT*dA*dT*dA*d[5mC]*dA*dA*dT*dT*d[5mC]*dT*kG*k[5mC]*k[5mC]; antisense) [compound 1076464]                2
6  1074800 (k[5mC]*kA*kA*dA*dT*dA*dG*dT*dG*d[5mC]*dT*dT*dT*kG*kG*kA; antisense) [compound 1074800]                6
7  1074224 (antisense k[5mC]*kA*kG*dA*dG*dA*d[5mC]*dT*dA*d[5mC]*dT*d[5mC]*d[5mC]*kA*kG*kT) [compound 1074224]               16
8  1074768 (k[5mC]*kT*kT*dA*dT*d[5mC]*d[5mC]*d[5mC]*dA*dA*dT*dG*d[5mC]*kT*kA*k[5mC]; antisense) [compound 1074768]               11
9  1075760 (kG*kA*kG*dA*dA*dA*dA*dA*d[5mC]*dT*dA*d[5mC]*dG*kG*kA*kT; antisense) [compound 1075760]               39

----------
Below: a set of entries, each annotated with reported Yap1 mRNA, % UTC.
# System: Yap1 mRNA
# assay.method.text: Dose-dependent inhibition of human Yap1 in A-431 cells (Example 8, 10,000 cells per well, RTS4814)
# Type: cell-based
# condition.set: 31.3 nM; A-431 cells, 10,000 cells per well, free uptake, approximately 48 hours, RTS4814
Strand notation (5' to 3'): a small letter for the sugar, then the base; units joined by * are phosphorothioate-linked, units joined directly phosphodiester-linked; [ ] holds rarer units or linkages, { } end groups; capitals alone tell only the bases. k = constrained ethyl (cEt); [5mC] = 5-methylcytosine; d = 2'-deoxy (DNA)
quantity: Yap1 mRNA, % UTC (% UTC)

> print(dat)
                                   substance    uom  measured.result
 1  1075784 (kA*kT*kT*dT*dT*dA*dT*dA*dG*dG*dG*d[5mC]*d[5mC]*kA*kT*kT; antisense) [compound 1075784]  % UTC               54
 2  1074628 (DNA kG*k[5mC]*k[5mC]*dT*dG*dT*dT*dA*dT*dG*dA*dA*d[5mC]*k[5mC]*k[5mC]*kT) [compound 1074628]  % UTC               29
 3  1076516 (k[5mC]*kA*kT*dA*dA*dA*d[5mC]*dA*dT*dG*dA*dG*dT*kG*kG*kT; antisense) [compound 1076516]  % UTC               64
 4  1074479 (k[5mC]*kA*kT*dT*dT*dG*d[5mC]*d[5mC]*dT*dA*dG*dG*dT*kT*k[5mC]*k[5mC]; antisense) [compound 1074479]  % UTC               23
 5  1074672 (antisense k[5mC]*k[5mC]*kA*dA*dG*dT*dA*dG*d[5mC]*dT*dT*dT*dG*kA*kT*k[5mC]) [compound 1074672]  % UTC               34
 6  1074852 (kA*kA*kT*dT*dG*dT*dT*dA*dT*dG*dA*dT*dA*kG*kG*k[5mC]; antisense) [compound 1074852]  % UTC               36
 7  1075118 (k[5mC]*kT*kA*dT*dT*dT*dA*d[5mC]*dT*d[5mC]*dT*dG*dT*k[5mC]*kA*k[5mC]; antisense) [compound 1075118]  % UTC               85
 8  1075855 (antisense kG*kA*kT*dT*dT*dT*dT*dA*dG*dG*d[5mC]*dA*dG*kA*k[5mC]*kG) [compound 1075855]  % UTC               65
 9  1075041 (antisense kG*kA*kT*dT*dA*dT*dA*dA*dA*dG*dA*dG*dG*k[5mC]*kT*k[5mC]) [compound 1075041]  % UTC               62
10  1075395 (antisense kA*kT*kG*dA*dA*dT*dA*dA*dG*dT*dA*dT*dG*k[5mC]*k[5mC]*kA) [compound 1075395]  % UTC               60
11  1074758 (k[5mC]*kA*kG*dT*dT*dA*dA*dG*d[5mC]*dA*d[5mC]*dT*dT*kT*kT*kA; antisense) [compound 1074758]  % UTC               74
12  1075916 (antisense k[5mC]*kA*kA*dT*dT*dT*dA*dG*dG*dA*dT*dG*d[5mC]*k[5mC]*kT*kT) [compound 1075916]  % UTC               73
13  1076530 (kA*kG*kT*dA*dT*dA*dA*dA*dG*d[5mC]*dA*dG*dG*kG*k[5mC]*kA; antisense) [compound 1076530]  % UTC               53
14  1074464 (kT*kT*kA*dG*dA*dG*dT*dA*dT*dG*dT*dG*dG*k[5mC]*kA*kA) [compound 1074464]  % UTC               25
